ASSAY SYSTEM: SARS-CoV-2 3CLpro (Severe acute respiratory syndrome coronavirus 2, UniProt P0DTD1)
PROTOCOL: biochemical
Type: biochemical
Design: unit not given here
CONDITION DESCRIPTION: sheet LOPAC_screen_w_protease; LOPAC1280 primary screen at 5 µM, with protease; replicate 1
# key: entry, value: Replicate_1
TEST READOUT: Replicate_1

> print(dat)
                                   compound  test.readout  test.value
1  Nc1ncnc2c1ncn2C1CCCO1 (stereo not drawn)   Replicate_1       0.976
2                Cl.Cl.Clc1cccc(N2CCNCC2)c1   Replicate_1      0.3435
3  CS(=O)(=O)O.Cn1cc(C(F)(F)F)nc1-c1ccc(OCC(O)CNCCOc2ccc(O)c(C(N)=O)c2)cc1 (stereo not drawn) [CGP 20712A methanesulfonate]   Replicate_1       1.402
4  O=[N+]([O-])c1ccc(O[C@@H]2O[C@H](CO)[C@@H](O)[C@H](O)[C@H]2F)c([N+](=O)[O-])c1   Replicate_1       1.883
5  Cn1c(=O)c2c(nc(C=Cc3cccc(Cl)c3)n2C)n(C)c1=O   Replicate_1      1.9699
6                       c1ccc(-c2ccccn2)nc1   Replicate_1       3.924
7  CCCN1CCO[C@@H]2c3cc(O)ccc3OC[C@H]21.Cl [S(+)-PD 128,907 hydrochloride]   Replicate_1      0.5719
8  Nc1ncnc2c1c(-c1ccc(Oc3ccccc3)cc1)cn2C1CCCC1   Replicate_1      0.3054
9  COc1ccc(CCN(C)CCc2ccc(OC)c(OC)c2)cc1OC.Cl [YS-035 hydrochloride]   Replicate_1      0.7595

###

ASSAY SYSTEM: SARS-CoV-2 3CLpro (Severe acute respiratory syndrome coronavirus 2)
PROTOCOL: biochemical
Format: biochemical
CONDITION DESCRIPTION: 4 h, read-out: Replicate_2
Where a name gives a salt, the structure may show the parent alone.

COMPOUND	inhibition at 5 µM [%]
C[C@]12CC[C@@H](O)C[C@@H]1CC[C@@H]1[C@@H]2CC[C@]2(C)C(=O)CC[C@@H]12	3.02
CCCC(C)(COC(N)=O)COC(=O)NC(C)C (stereo not drawn)	2.2
CCCCCCCCCCCCCC(=O)O[C@@H]1[C@@H](C)[C@@]2(O)[C@@H](C=C(CO)C[C@]3(O)C(=O)C(C)=C[C@@H]23)[C@@H]2C(C)(C)[C@]12OC(C)=O [Phorbol 12-myristate 13-acetate]	-0.596
C[C@@H]1O[C@@H](O[C@H]2C[C@@H](O)[C@]3(CO)[C@H]4[C@H](O)C[C@]5(C)[C@@H](C6=CC(=O)OC6)CC[C@]5(O)[C@@H]4CC[C@]3(O)C2)[C@H](O)[C@H](O)[C@H]1O	1.68
CC(C)NP(=O)(NC(C)C)OP(=O)(NC(C)C)NC(C)C [Tetraisopropyl pyrophosphoramide]	-0.275
CSc1ccc2c(c1)N(CCC1CCCCN1C)c1ccccc1S2 (stereo not drawn) [Thioridazine hydrochloride]	0.816
Clc1ccccc1C(c1ccccc1)(c1ccccc1)n1ccnc1	3.07
Oc1ccc2c3c1O[C@H]1c4oc5ccccc5c4C[C@@]4(O)[C@@H](C2)N(CC2CC2)CC[C@]314 [Naltriben methanesulfonate]	3
CC1(C)CCC2=C(O1)c1ccccc1C(=O)C2=O	0.52
C[C@]12CCC(=O)C=C1CC[C@@H]1[C@@H]2CC[C@]2(C)C(=O)CC[C@@H]12	1.66
CC[N+](CC)(CC)CC [Tetraethylammonium chloride]	-1.51
CC(C)[C@@]1(NC(=O)[C@@H]2C=C3c4cccc5[nH]cc(c45)C[C@H]3N(C)C2)O[C@@]2(O)[C@@H]3CCCN3C(=O)[C@H](Cc3ccccc3)N2C1=O	2.86
CNCCC=C1c2ccccc2CCc2ccccc21 [Nortriptyline hydrochloride]	1.57
O=c1cc(-c2ccc(O)cc2)oc2cc(O)cc(O)c12	-0.402
O=C(O)[C@@H]1[C@H](C(=O)O)[C@H]2CC[C@@H]1O2 [Endothall]	-0.805

Cited source: paper PMC7587356
